- System: IA-LM
- ASSAY_PROTOCOL: relative viability (nuclei count vs DMSO), 5 days (fraction); higher = more cells survive
- ASSAY_SETUP: first compound 1.265 µM
Field: label. Allowed values: Y (relative viability < 0.09) or N (relative viability >= 0.09).

{"columns": ["MOLECULE", "DISCRETE_LABEL"],
 "data": [
  ["Cc1sc2c(c1C)C(c1ccc(Cl)cc1)=N[C@@H](CC(=O)OC(C)(C)C)c1nnc(C)n1-2 [JQ1] + C[C@]1(O)C[C@@H](c2nc(-c3ccc4ccc(-c5ccccc5)nc4c3)c3c(N)nccn32)C1 [Linsitinib] (partner 1 µM)", "N"],
  ["Cc1sc2c(c1C)C(c1ccc(Cl)cc1)=N[C@@H](CC(=O)OC(C)(C)C)c1nnc(C)n1-2 [JQ1] + CC1(C)CCC(c2ccc(Cl)cc2)=C(CN2CCN(c3ccc(C(=O)NS(=O)(=O)c4ccc(N[C@H](CCN5CCOCC5)CSc5ccccc5)c(S(=O)(=O)C(F)(F)F)c4)cc3)CC2)C1 [Navitoclax] (partner 0.5 µM)", "Y"],
  ["Cc1sc2c(c1C)C(c1ccc(Cl)cc1)=N[C@@H](CC(=O)OC(C)(C)C)c1nnc(C)n1-2 [JQ1] + COc1cc2c(Oc3ccc(NC(=O)C4(C(=O)Nc5ccc(F)cc5)CC4)cc3F)ccnc2cc1OCCCN1CCOCC1 [Foretinib] (partner 0.25 µM)", "Y"],
  ["Cc1sc2c(c1C)C(c1ccc(Cl)cc1)=N[C@@H](CC(=O)OC(C)(C)C)c1nnc(C)n1-2 [JQ1] + CC(C)C[C@H](NC(=O)[C@H](Cc1ccccc1)NC(=O)c1cnccn1)B(O)O [Bortezomib] (partner 0.002 µM)", "Y"]
]}
